The reported measurements were obtained from paper doi:10.1101/2021.10.04.463106.

What EC50 at 48 h was measured for each of the following?
Experimental Details: ATP content cytotoxicity assay
Test Parameters: human, HEK293-ACE2 cells
Give the value in µM but do not write µM after it.

Task: I have this compound here, `Cc1cccc(/C=N/Nc2cc(N3CCOCC3)nc(OCCc3ccccn3)n2)c1` , and I need its recorded EC50 at 48 h.
Result: 9.31

Task: I have this compound here, `COc1cc(N2CCC(N3CCN(C)CC3)CC2)ccc1Nc1ncc(Cl)c(Nc2ccccc2P(C)(C)=O)n1` , and I need its recorded EC50 at 48 h.
Result: 0.67

* * *

Test system: SARS-CoV-2-S PP (Wuhan-Hu-1 spike)
Experimental Details: microbe, parasite or virus in culture
Type: cell-based
Test Parameters: Severe acute respiratory syndrome coronavirus 2, read-out: PP EC50
Readout Type: EC50 (nM)
Give the value in nM but do not write nM after it.

Task: Under SARS-CoV-2-S PP (Wuhan-Hu-1 spike): EC50 value of CCOC(=O)[C@H]1O[C@@H]1C(=O)N[C@@H](CC(C)C)C(=O)NCCC(C)C [Aloxistatin, aloxistatin] ?
Result: 190

Task: Under SARS-CoV-2-S PP (Wuhan-Hu-1 spike): EC50 value of COc1cc(N2CCC(N3CCN(C)CC3)CC2)ccc1Nc1ncc(Cl)c(Nc2ccccc2P(C)(C)=O)n1 [Brigatinib, brigatinib] ?
Result: 4300

Task: Under SARS-CoV-2-S PP (Wuhan-Hu-1 spike): EC50 value of Cc1cccc(/C=N/Nc2cc(N3CCOCC3)nc(OCCc3ccccn3)n2)c1 [Apilimod, apilimod] ?
Result: 120

Task: Under SARS-CoV-2-S PP (Wuhan-Hu-1 spike): EC50 value of CCCC[C@@H](C=O)NC(=O)[C@H](CC(C)C)NC(=O)OCc1ccccc1 [Calpeptin, calpeptin] ?
Result: 1200

Task: Under SARS-CoV-2-S PP (Wuhan-Hu-1 spike): EC50 value of Oc1ccc(Cl)cc1Cc1cc(Cl)ccc1O [Dichlorophen, dichlorophen] ?
Result: 30
